target system: GST-Pin1 (Homo sapiens, UniProt Q13526)
Sequence (Q13526 whole entry): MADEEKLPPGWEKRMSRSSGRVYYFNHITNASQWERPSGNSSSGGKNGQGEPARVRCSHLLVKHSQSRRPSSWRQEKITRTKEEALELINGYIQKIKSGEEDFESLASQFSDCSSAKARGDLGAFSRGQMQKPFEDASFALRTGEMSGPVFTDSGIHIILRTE
run description: Fluorescence polarization pTide competition assay (FP-HTS / FP assay)
experimental endpoint: Pin1 binding in the FP assay

compound: CC1=C(/C=C/C(C)=C/C=C/C(C)=C/CO)C(C)(C)CCC1
target system: GST-Pin1 (Homo sapiens, UniProt Q13526)
assay value: totally inactive
--
compound: CC(=O)OC/C=C(C)/C=C/C=C(C)/C=C/C1=C(C)CCCC1(C)C [retinyl acetate]
target system: GST-Pin1 (Homo sapiens, UniProt Q13526)
assay value: totally inactive
--
compound: CC1=C(/C=C/C(C)=C/C=C/C(C)=C/C=O)C(C)(C)CCC1
target system: GST-Pin1 (Homo sapiens, UniProt Q13526)
assay value: totally inactive
--
compound: COc1cc(C)c(/C=C/C(C)=C/C=C/C(C)=C/C(=O)O)c(C)c1C
target system: GST-Pin1 (Homo sapiens, UniProt Q13526)
assay value: moderate binding
--
compound: CC1(C)CCC(C)(C)c2cc(NC(=O)c3ccc(C(=O)O)cc3)ccc21
target system: GST-Pin1 (Homo sapiens, UniProt Q13526)
assay value: moderate binding

# credit: patent US10548864B2
